- Tested on: KATO III (FGFR2 amp)
- assayMethodText: In vitro growth inhibition of KATO III tumor cells (MTT/CCK8)
- Assay type: cell-based, Human
- conditionDetails: Homo sapiens, KATO III; in vitro growth inhibition (or induction of apoptosis), cells cultured 3 to 5 days, MTT (CCK8); read-out: IC50 KATO III (FGFR2 amp)
measuredMetric: pIC50
Convention used: pIC50 is expressed as -log10 of the molar concentration.

// field: pIC50; key: COc1cc2nccc(Oc3ccc(NC(=O)Nc4cc(C(C)(C)C)n[nH]4)c(Cl)c3C)c2cc1C(N)=O ; value = 9.64

Lab note: COc1cc2nccc(Nc3ccc(NC(=O)Nc4cc(C(C)(C)C)on4)cc3Cl)c2cc1C(N)=O gave pIC50 of 7.30

GET /value?item= CN1CCN(CCCOc2cc3nccc(Oc4ccc(NC(=O)Nc5cc(C(C)(C)C)n[nH]5)c(Cl)c4Cl)c3cc2C(N)=O)CC1 &field=pIC50 returns 9.04

// field: pIC50; key: COc1cc2nccc(Oc3ccc(NC(=O)Nc4cc(C(C)(C)C)on4)cc3)c2cc1C(N)=O ; value = 8.89

###

- Tested on: Kasumi-1 (KIT N822K)
- assayMethodText: In vitro growth inhibition of Kasumi-1 tumor cells (MTT/CCK8)
- Type: cell-based, Human
- conditionDetails: Homo sapiens, Kasumi 1; in vitro growth inhibition (or induction of apoptosis), cells cultured 3 to 5 days, MTT (CCK8); read-out: IC50 Kasumi-1 (KIT N822K)
What IC50 was measured for each of the following?
Expressed in nM, but write only the number.

Query COc1cc2nccc(Oc3ccc(NC(=O)Nc4cc(C(C)(C)C)n[nH]4)c(Cl)c3C)c2cc1C(N)=O [Compound 112] yields IC50 of 0.406

What the record says about CC(=O)N1CCN(CCCOc2cc3nccc(Oc4ccc(NC(=O)Nc5cc(C(C)(C)C)n[nH]5)c(Cl)c4)c3cc2C(N)=O)CC1 [Compound 91] : IC50 is 16.4

Data point: COc1cc2nccc(Oc3ccc(NC(=O)N(C)c4cc(C(C)(C)C)on4)c(Cl)c3)c2cc1C(N)=O [Compound 12] ; IC50 = 389

The molecule identified as COc1cc2nccc(Oc3ccc(NC(=O)Nc4cc(C(C)(C)C)nn4C4CCCC4)c(Cl)c3)c2cc1C(N)=O [Compound 30] registered its IC50 at 23.7

Input CC(C)(C)c1cc(NC(=O)Nc2ccc(Oc3ccnc4cc(OCCN5CCCCC5)c(C(N)=O)cc34)cc2Cl)[nH]n1 [Compound 84] . Output IC50: 240

GET /value?item= COc1cc2nccc(Oc3ccc(NC(=O)Nc4cc(C(C)(C)C)on4)c(N4CCN(C)CC4)c3)c2cc1C(N)=O [Compound 10] &field=IC50 returns 71.9

Per the record, COc1cc(Oc2ccnc3cc(OC)c(C(N)=O)cc23)ccc1NC(=O)n1nc(C(C)(C)C)cc1N [Compound 73] has IC50 of 129

IC50 in this record for CNC(=O)c1cc2c(Oc3ccc(NC(=O)Nc4cc(C(C)(C)C)n[nH]4)c(C)c3)ccnc2cc1OC [Compound 49] : 100

The reported IC50 of the molecule COc1cc2nccc(Oc3ccc(NC(=O)Nc4cc(C(C)(C)C)no4)c(Cl)c3)c2cc1C(N)=O [Compound 13] was 5.46

The molecule listed as CNC(=O)c1cc2c(Oc3ccc(NC(=O)Nc4cc(C(C)(C)C)n[nH]4)cc3C)ccnc2cc1OC [Compound 52] shows IC50 equal to 3.83

Lab note: measured IC50 of CNC(=O)c1cc2c(Oc3ccc(NC(=O)Nc4cc(C(C)(C)C)no4)c(Cl)c3)ccnc2cc1OC [Compound 15] was 5.43

Reported IC50 for COc1cc2nccc(Oc3ccc(NC(=O)Nc4cc(C(C)(C)C)n[nH]4)cc3C)c2cc1NC(C)=O [Compound 103] was 14.6

So, COc1cc2nccc(Nc3ccc(NC(=O)Nc4cc(C(C)(C)C)on4)c(Cl)c3)c2cc1C(N)=O [Compound 77] ? Its IC50 was 518

###

- Tested on: KATO III (FGFR2 amp)
- assayMethodText: In vitro growth inhibition of KATO III tumor cells (MTT/CCK8)
- Assay type: cell-based, Human
- conditionDetails: Homo sapiens, KATO III; in vitro growth inhibition (or induction of apoptosis), cells cultured 3 to 5 days, MTT (CCK8); read-out: IC50 KATO III (FGFR2 amp)
So I've got a bunch of compounds here, and I need their pIC50 values.
Field pIC50 (float): negative decimal logarithm of the concentration in molar.

So for COc1cc2nccc(Nc3ccc(NC(=O)Nc4cc(C(C)(C)C)on4)cc3C)c2cc1C(N)=O [Compound 99] , the logged pIC50 turned out to be 7.42

Lab note: COCCOc1cc2nccc(Oc3ccc(NC(=O)Nc4cc(C(C)(C)C)nn4C)c(Cl)c3)c2cc1NC(C)=O [Compound 124] gave pIC50 of 9.51

// field: pIC50; key: COc1cc2nccc(Oc3ccc(NC(=O)Nc4cc(C(C)(C)C)on4)cc3F)c2cc1C(N)=O [Compound 9] ; value = 8.86

###

- Tested on: Kasumi-1 (KIT N822K)
- assayMethodText: In vitro growth inhibition of Kasumi-1 tumor cells (MTT/CCK8)
- Format: cell-based, Human
- conditionDetails: Homo sapiens, Kasumi 1; in vitro growth inhibition (or induction of apoptosis), cells cultured 3 to 5 days, MTT (CCK8); read-out: IC50 Kasumi-1 (KIT N822K)
Classes based on IC50: low band = under 0.008 µM, middle band = from 0.008 µM up to 0.04 µM, high band = 0.04 µM and over

Kindly state the category for this compound: COc1cc2nc(Cl)cc(Oc3ccc(NC(=O)Nc4cc(C(C)(C)C)nn4C)c(Cl)c3)c2cc1C(N)=O
high band

Please report the category associated with CCC(=O)N1CCC(NC(=O)Nc2ccc(Oc3ccnc4cc(OC)c(C(N)=O)cc34)cc2Cl)C1 (stereo not drawn) , nothing else.
high band

State the band of CCN1CCN(c2ccc(Nc3cc(N(C)C(=O)Nc4c(Cl)c(OC)cc(OC)c4Cl)ncn3)cc2)CC1 [BGJ398, reference compound]
high band

For CCn1nc(C(C)(C)C)cc1NC(=O)Nc1ccc(Oc2ccnc3cc(OC)c(C(N)=O)cc23)cc1Cl , which IC50 bin applies?
middle band

For COc1cc2nccc(Oc3ccc(NC(=O)N4CCc5ccsc5C4)c(Cl)c3)c2cc1C(N)=O , which IC50 bin applies?
high band

Field: class (IC50) — entry: CNC(=O)c1cc2c(Oc3ccc(NC(=O)Nc4cc(C(C)(C)C)nn4C)c(Cl)c3)ccnc2cc1OC
middle band

Note: place this compound into its band. Item: COc1cc2nccc(Oc3ccc(NC(=O)Nc4cc(C(C)(C)C)n[nH]4)c(Cl)c3Cl)c2cc1C(N)=O
low band

Into which bin does this compound go? CNC(=O)c1cc2c(Oc3ccc(NC(=O)N4CCCC4)c(Cl)c3Cl)ccnc2cc1OCCOC
high band

Input COc1cc2nccc(Oc3ccc(NC(=O)Nc4cc(C(C)(C)C)nn4CCO)c(Cl)c3)c2cc1C(N)=O ; output its category
high band

Lab note: which band did CC(C)CN1CCN(CCCOc2cc3nccc(Oc4ccc(NC(=O)Nc5cc(C(C)(C)C)n[nH]5)c(Cl)c4)c3cc2C(N)=O)CC1 land in?
low band

GET /class?item= CC(C)Oc1cc2nccc(Oc3ccc(NC(=O)Nc4cc(C(C)(C)C)n[nH]4)c(Cl)c3)c2cc1C(N)=O
high band

Exercise: read the entry COCCN1CCN(CCCOc2cc3nccc(Oc4ccc(NC(=O)Nc5cc(C(C)(C)C)n[nH]5)c(Cl)c4)c3cc2C(N)=O)CC1 and state which class it falls under.
low band

Please classify: CNC(=O)c1cc2c(Oc3ccc(NC(=O)Nc4cc(C(C)(C)C)n[nH]4)c(Cl)c3)ccnc2cc1OCCOC
middle band

Exercise: read the entry COc1cc2nccc(Oc3ccc(NC(=O)Nc4cc(C(C)(C)C)n[nH]4)c(C)c3C)c2cc1C(N)=O and state which class it falls under.
low band

Any idea which band COc1cc2nccc(Oc3ccc(NC(=O)Nc4cc(C(C)C)n[nH]4)c(Cl)c3)c2cc1C(N)=O is in?
high band

Using the reported IC50, which band applies to COc1cc2nccc(Oc3ccc(NC(=O)Nc4cc(C(C)(C)C)n[nH]4)c(Cl)c3)c2cc1C#N ?
middle band

Which of the defined bands does the recorded IC50 of COc1cc2nccc(Oc3ccc(NC(=O)Nc4cc(C5CC5)n[nH]4)c(Cl)c3)c2cc1C(N)=O sit within?
high band

###

- Test system: H1703 (PDGFRa amp)
- assayMethodText: In vitro growth inhibition of H1703 tumor cells (MTT/CCK8)
- Format: cell-based, Human
- conditionDetails: Homo sapiens, NCI-H1703; in vitro growth inhibition (or induction of apoptosis), cells cultured 3 to 5 days, MTT (CCK8); read-out: IC50 H1703 (PDGFRa amp)
Kindly supply the reported pIC50 values for the records listed here.
pIC50 here is simply -log10 of the concentration when that concentration is written in mol/L.

Test item COc1cc2nccc(Oc3ccc(NC(=O)Nc4cc(C(C)(C)C)n[nH]4)cc3Cl)c2cc1NC(C)=O [Compound 101] ; H1703 (PDGFRa amp); reported pIC50 was 7.21

Per the reported H1703 (PDGFRa amp) data, COc1cc2nccc(Oc3ccc(NC(=O)Nc4cc(C(C)(C)C)on4)cn3)c2cc1C(N)=O [Compound 24] has pIC50 of 7.08
